experimental-target: YES1 (human) (UniProt P07947)
Sequence (P07947 whole entry, looked up): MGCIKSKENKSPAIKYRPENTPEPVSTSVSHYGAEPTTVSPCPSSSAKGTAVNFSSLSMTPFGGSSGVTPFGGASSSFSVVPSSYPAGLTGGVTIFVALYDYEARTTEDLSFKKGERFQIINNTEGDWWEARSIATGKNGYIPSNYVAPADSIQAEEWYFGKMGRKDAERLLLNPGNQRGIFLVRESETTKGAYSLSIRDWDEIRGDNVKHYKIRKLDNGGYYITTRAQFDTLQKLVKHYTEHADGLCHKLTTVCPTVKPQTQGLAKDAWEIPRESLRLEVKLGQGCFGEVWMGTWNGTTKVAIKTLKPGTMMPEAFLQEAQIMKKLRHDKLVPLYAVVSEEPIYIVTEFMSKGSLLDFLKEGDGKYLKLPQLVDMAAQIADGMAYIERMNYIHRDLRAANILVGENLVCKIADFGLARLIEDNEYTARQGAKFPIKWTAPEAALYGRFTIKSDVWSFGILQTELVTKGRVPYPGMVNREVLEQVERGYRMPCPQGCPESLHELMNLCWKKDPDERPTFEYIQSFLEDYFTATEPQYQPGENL
protocol-details: radiometric filter-binding kinase assay
condition-summary: compound 0.01 µM
observation-type: residual activity (%)

# molecule, experimental-target, observation-type, obs-value
measured = [
    ("COc1ccc(N(C(=O)Nc2c(C)cccc2C)c2cc(Nc3ccc(N4CCN(C)CC4)cc3)ncn2)c(OC)c1", "YES1 (human) (UniProt P07947)", "residual activity", 34),
]

A: COc1cc(O)c2c(c1)[C@H]1OC1C[C@H](O)[C@H](O)C(=O)/C=C\C[C@H](C)OC2=O (stereo partly specified)
B: C/C(=C1/C(=O)Nc2ccc(NC(N)=O)cc21)c1ccc[nH]1
Exercise: compare A and B ; which one has the greater residual activity? Answer by stating the label of the chosen item.
A
(A: 87%, B: 60%)

1: O=C(Nc1nc2cc(C(F)(F)F)cc(NC3CC3)n2n1)c1cccnc1
2: CNc1nc(-c2ccc3c(N)n[nH]c3c2)cc(N2C[C@@H](C(=O)NC3CCCCC3)CC[C@H]2C)n1
Please indicate which entry, 1 or 2 , has the lower recorded residual activity value. # answer = label of selected item
1
(1: 81%, 2: 122%)

----------
experimental-target: IKBKE (human)
protocol-details: radiometric filter-binding kinase assay
condition-summary: compound 0.1 µM
observation-type: residual activity (%)

P: Cc1cccc(-c2nn(C(=S)Nc3ccccc3)cc2-c2ccnc3ccccc23)n1
Q: COc1ccc(-n2ncc3cnc(Nc4cc(OC)c(OC)c(OCCCN5CCN(C)CC5)c4)nc32)cc1
R: C/C(=C1/C(=O)Nc2ccc(NC(N)=O)cc21)c1ccc[nH]1
S: CNC(=O)C1[C@H]2O[C@@](C)([C@@H]1N)n1c3ccccc3c3c4c(c5c6ccccc6n2c5c31)C(=O)NC4 (stereo not given in full)
Sort by residual activity with smallest numbers at the start of the list. Answer by writing out the labels in the requested order.
S, Q, R, P
(S: 1%, Q: 28%, R: 69%, P: 112%)

P: COc1ccc(N(C(=O)Nc2c(C)cccc2C)c2cc(Nc3ccc(N4CCN(C)CC4)cc3)ncn2)c(OC)c1
Q: NC(=O)Nc1ccc2c(c1)/C(=C/c1cc(-c3cccnc3)c[nH]1)C(=O)N2
Decide: P or Q , by lowest recorded residual activity. Returns: label corresponding to the selected item.
Q

----------
experimental-target: UniProt:Q9P286
Sequence (Q9P286 whole entry, looked up): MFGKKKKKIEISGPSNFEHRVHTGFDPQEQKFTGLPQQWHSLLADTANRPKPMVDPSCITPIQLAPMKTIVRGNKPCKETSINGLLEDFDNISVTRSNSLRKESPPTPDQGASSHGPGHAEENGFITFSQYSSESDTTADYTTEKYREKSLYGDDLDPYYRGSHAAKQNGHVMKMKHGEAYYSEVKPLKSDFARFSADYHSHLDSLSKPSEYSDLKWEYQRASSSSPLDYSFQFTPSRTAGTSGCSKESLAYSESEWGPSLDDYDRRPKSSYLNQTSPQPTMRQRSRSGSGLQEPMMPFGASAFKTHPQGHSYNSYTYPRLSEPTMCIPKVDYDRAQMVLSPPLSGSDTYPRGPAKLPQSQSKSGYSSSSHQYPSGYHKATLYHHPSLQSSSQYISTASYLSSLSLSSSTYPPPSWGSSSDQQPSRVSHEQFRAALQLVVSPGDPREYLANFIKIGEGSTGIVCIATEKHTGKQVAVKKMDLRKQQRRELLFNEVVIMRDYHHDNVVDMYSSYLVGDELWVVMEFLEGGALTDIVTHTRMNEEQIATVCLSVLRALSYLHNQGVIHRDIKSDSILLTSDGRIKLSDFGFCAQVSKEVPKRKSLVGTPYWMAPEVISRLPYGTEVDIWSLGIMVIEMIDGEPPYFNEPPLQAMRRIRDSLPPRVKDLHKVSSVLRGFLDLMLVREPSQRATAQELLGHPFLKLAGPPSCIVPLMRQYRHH
protocol-details: radiometric filter-binding kinase assay
condition-summary: compound 1.0 µM
observation-type: residual activity (%)

# compound, observation-type, measure-unit, obs-value
data = [
    ("CCc1cncnc1N1CCN(Cc2nc3cc(C(F)(F)F)ccc3[nH]2)CC1", "residual activity", "%", 88),
    ("CCn1c(-c2nonc2N)nc2cncc(CNC3CCNCC3)c21", "residual activity", "%", 100),
    ("O=C(Nc1nc2cc(C(F)(F)F)cc(NC3CC3)n2n1)c1cccnc1", "residual activity", "%", 91),
    ("CN1C(=O)[C@@H](Cc2c[nH]c3ccccc23)NC1=S", "residual activity", "%", 119),
    ("Cc1nc(-c2ccc(OCC(C)C)c(C#N)c2)sc1C(=O)O", "residual activity", "%", 101),
    ("CN(C)C/C=C/C(=O)Nc1cccc(C(=O)Nc2ccc(Nc3nccc(-c4cccnc4)n3)cc2)c1", "residual activity", "%", 91),
    ("Cc1cc(NC(=O)c2cccc(NC(=O)/C=C/CN(C)C)c2)ccc1Nc1nccc(-c2cccnc2)n1", "residual activity", "%", 82),
    ("CC1=C(CO)C(=O)O[C@@H]([C@@H](C)[C@H]2CC[C@H]3[C@@H]4C[C@H]5O[C@]56[C@@H](O)C=CC(=O)[C@]6(C)C4CC[C@]23C)C1 (some centres undefined)", "residual activity", "%", 116),
    ("CNc1nc(-c2ccc3c(N)n[nH]c3c2)cc(N2C[C@@H](C(=O)NC3CCCCC3)CC[C@H]2C)n1", "residual activity", "%", 97),
]

----------
experimental-target: JAK2 JH1 JH2 (human) (UniProt O60674)
Sequence (O60674 whole entry, looked up): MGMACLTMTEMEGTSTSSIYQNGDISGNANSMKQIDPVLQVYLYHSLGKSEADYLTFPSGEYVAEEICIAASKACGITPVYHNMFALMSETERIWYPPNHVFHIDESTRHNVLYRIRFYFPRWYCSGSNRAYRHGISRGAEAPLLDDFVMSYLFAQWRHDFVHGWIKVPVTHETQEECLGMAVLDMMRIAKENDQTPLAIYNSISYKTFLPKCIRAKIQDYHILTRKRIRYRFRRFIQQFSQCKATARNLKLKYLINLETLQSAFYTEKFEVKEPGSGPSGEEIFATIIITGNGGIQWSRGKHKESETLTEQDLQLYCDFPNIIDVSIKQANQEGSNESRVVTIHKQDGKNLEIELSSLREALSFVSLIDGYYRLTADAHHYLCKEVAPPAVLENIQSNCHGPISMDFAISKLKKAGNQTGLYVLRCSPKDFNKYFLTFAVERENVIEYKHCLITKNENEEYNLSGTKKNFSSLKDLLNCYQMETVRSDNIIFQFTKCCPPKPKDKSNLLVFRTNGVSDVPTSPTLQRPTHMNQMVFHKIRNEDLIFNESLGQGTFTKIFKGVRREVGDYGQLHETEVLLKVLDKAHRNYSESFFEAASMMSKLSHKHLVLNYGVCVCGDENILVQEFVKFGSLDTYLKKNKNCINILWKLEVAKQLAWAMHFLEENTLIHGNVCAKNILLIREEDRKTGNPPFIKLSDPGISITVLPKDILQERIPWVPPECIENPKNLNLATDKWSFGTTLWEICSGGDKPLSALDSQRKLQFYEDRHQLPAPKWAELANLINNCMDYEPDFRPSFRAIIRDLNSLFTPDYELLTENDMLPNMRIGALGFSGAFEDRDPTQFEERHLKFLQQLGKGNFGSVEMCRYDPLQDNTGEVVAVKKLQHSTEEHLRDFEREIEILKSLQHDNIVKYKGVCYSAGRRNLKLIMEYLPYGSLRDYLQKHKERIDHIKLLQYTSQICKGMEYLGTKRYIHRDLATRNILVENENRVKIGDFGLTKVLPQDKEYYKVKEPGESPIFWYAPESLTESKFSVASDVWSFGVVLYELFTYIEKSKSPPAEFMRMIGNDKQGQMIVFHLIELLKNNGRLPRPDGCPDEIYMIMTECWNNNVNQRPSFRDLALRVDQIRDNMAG
protocol-details: radiometric filter-binding kinase assay
condition-summary: compound 1.0 µM
observation-type: residual activity (%)

Worked set:
# smiles-text, residual activity [%]
measured = [
    ("Cc1cc(NC(=O)c2cccc(NC(=O)/C=C/CN(C)C)c2)ccc1Nc1nccc(-c2cccnc2)n1", 94),
    ("NC(=O)c1ccc(-c2ccc(Oc3cncc4sc(-c5nn[nH]n5)cc34)cc2)cc1", 97),
    ("Cc1ccc(-c2ccc3c(ccc4sc5c(c43)NC[C@@H](C)NC5=O)n2)cn1", 102),
]

I: CN(C)C/C=C/C(=O)Nc1cccc(C(=O)Nc2ccc(Nc3nccc(-c4cccnc4)n3)cc2)c1
II: COc1ccc(-n2ncc3cnc(Nc4cc(OC)c(OC)c(OCCCN5CCN(C)CC5)c4)nc32)cc1
Looking only at measured residual activity, which entry is lower, I or II ? Give the chosen item's label as your response.
II
(II: 3%, I: 77%)

----------
experimental-target: FGFR1 (human)
protocol-details: radiometric filter-binding kinase assay
condition-summary: compound 0.1 µM
observation-type: residual activity (%)

I: Cc1cccc(-c2nn(C(=S)Nc3ccccc3)cc2-c2ccnc3ccccc23)n1
II: COc1ccc(N(C(=O)Nc2c(C)cccc2C)c2cc(Nc3ccc(N4CCN(C)CC4)cc3)ncn2)c(OC)c1
III: CNC(=O)C1[C@H]2O[C@@](C)([C@@H]1N)n1c3ccccc3c3c4c(c5c6ccccc6n2c5c31)C(=O)NC4 (some centres undefined)
# rank above entries by residual activity (max first, min last) The response must list the labels following the requested ordering.
I, II, III

----------
experimental-target: NEK2 (human) (UniProt P51955)
Sequence (P51955 whole entry, looked up): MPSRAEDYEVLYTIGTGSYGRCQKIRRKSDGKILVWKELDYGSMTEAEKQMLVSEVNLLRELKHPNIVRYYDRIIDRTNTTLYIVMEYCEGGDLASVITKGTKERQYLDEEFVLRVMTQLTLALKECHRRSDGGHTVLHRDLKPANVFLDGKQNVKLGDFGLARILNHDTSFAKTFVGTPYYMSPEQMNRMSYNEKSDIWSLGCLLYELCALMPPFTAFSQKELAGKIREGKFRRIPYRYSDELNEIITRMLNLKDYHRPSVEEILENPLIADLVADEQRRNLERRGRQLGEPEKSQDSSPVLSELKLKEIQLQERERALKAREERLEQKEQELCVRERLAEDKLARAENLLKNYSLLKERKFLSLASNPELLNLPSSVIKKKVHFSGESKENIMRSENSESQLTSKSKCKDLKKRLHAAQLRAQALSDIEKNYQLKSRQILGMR
protocol-details: radiometric filter-binding kinase assay
condition-summary: compound 10.0 µM
observation-type: residual activity (%)

# count of solved cases: 3
# compound, residual activity, %
rows = [
    ("O=C1NC(=S)N[C@@H]1Cc1c[nH]c2ccccc12", 92),
    ("CC1=C(CO)C(=O)O[C@@H]([C@@H](C)[C@H]2CC[C@H]3[C@@H]4C[C@H]5O[C@]56[C@@H](O)C=CC(=O)[C@]6(C)C4CC[C@]23C)C1 (stereo not given in full)", 82),
    ("O=C1Nc2nc(-c3c(O)cccc3OCC3CC3)cc(C3CCCNC3)c2CO1 (stereo not given)", 81),
]

1: Cn1nc(Nc2ccc(F)cc2)c2c(N)ncnc21
2: Oc1ccc2ccccc2c1SSc1c(O)ccc2ccccc12
Between 1 and 2 , whose recorded residual activity is greater? Record your answer as the label of the chosen record.
1
(1: 100%, 2: 54%)

----------
experimental-target: CSNK2A1 (human) (UniProt P68400)
Sequence (P68400 whole entry, looked up): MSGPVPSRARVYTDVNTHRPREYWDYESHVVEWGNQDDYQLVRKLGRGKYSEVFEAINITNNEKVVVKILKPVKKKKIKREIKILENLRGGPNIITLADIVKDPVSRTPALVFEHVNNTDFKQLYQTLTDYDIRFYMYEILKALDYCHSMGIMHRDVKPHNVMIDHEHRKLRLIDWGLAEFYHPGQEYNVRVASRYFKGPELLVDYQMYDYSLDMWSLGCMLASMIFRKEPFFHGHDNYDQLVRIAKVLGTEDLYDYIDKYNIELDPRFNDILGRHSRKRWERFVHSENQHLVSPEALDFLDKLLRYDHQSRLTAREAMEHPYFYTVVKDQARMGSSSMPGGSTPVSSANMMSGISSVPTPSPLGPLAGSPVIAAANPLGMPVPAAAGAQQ
protocol-details: radiometric filter-binding kinase assay
condition-summary: compound 0.1 µM
observation-type: residual activity (%)

# molecule, measure-unit, obs-value
measured = [
    ("CN(C)C/C=C/C(=O)Nc1cccc(C(=O)Nc2ccc(Nc3nccc(-c4cccnc4)n3)cc2)c1", "%", 80),
    ("COc1ccc2c(c1)c1c3c(c4c5ccccc5n(C)c4c1n2CC(O)CN(C)C)C(=O)NC3=O (stereo unspecified)", "%", 105),
    ("NC(=O)c1cc2c(-c3cccc(-c4ccccc4)c3)cnc(N)c2s1", "%", 91),
    ("Cc1cccc(-c2nn(C(=S)Nc3ccccc3)cc2-c2ccnc3ccccc23)n1", "%", 102),
    ("NC(=O)Nc1ccc2c(c1)/C(=C/c1cc(-c3cccnc3)c[nH]1)C(=O)N2", "%", 93),
    ("O=C(Nc1ccccc1-c1cn2c(CN3CCNCC3)csc2n1)c1cnc2ccccc2n1", "%", 90),
]

----------
experimental-target: BRSK1 (human) (UniProt Q8TDC3)
Sequence (Q8TDC3 whole entry, looked up): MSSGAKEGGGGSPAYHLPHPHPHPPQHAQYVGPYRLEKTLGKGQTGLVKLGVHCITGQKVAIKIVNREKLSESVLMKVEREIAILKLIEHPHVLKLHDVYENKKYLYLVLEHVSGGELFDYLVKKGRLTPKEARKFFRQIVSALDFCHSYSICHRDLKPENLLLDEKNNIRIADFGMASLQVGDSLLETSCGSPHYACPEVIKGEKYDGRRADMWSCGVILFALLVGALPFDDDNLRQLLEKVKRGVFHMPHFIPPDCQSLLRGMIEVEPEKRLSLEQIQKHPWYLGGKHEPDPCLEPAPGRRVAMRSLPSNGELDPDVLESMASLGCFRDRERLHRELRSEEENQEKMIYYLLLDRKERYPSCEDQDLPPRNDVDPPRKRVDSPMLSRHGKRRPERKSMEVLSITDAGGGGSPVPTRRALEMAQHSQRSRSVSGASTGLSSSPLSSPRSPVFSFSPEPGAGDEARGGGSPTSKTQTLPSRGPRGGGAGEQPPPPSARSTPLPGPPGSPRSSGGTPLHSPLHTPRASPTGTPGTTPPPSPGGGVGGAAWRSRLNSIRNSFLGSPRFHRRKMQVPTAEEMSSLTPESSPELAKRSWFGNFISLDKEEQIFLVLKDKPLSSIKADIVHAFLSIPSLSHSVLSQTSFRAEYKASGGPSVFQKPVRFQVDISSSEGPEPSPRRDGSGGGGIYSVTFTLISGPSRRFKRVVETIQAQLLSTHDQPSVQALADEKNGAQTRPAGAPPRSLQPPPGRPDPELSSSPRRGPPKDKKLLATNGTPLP
protocol-details: radiometric filter-binding kinase assay
condition-summary: compound 1.0 µM
observation-type: residual activity (%)

The following compounds have reported results that may help.
# smiles-text, residual activity [%]
records = [
    ("COc1cc(O)c2c(c1)/C=C/C[C@H](O)[C@H](O)C(=O)/C=C\\C[C@H](C)OC2=O", 90),
    ("O=C(O)c1cc(N=Nc2ccc(S(=O)(=O)Nc3ccccn3)cc2)ccc1O", 97),
    ("Oc1ccc2ccccc2c1SSc1c(O)ccc2ccccc12", 29),
]

I: COc1ccc(-n2ncc3cnc(Nc4cc(OC)c(OC)c(OCCCN5CCN(C)CC5)c4)nc32)cc1
II: CCNc1nc(Nc2cc(F)c(C(=O)N3CCOCC3)cc2OC)ncc1C(F)(F)F
Of I and II , which one carries the higher reported residual activity? Answer by quoting the chosen item's label.
II

----------
experimental-target: AURKA (human) (UniProt O14965)
Sequence (O14965 whole entry, looked up): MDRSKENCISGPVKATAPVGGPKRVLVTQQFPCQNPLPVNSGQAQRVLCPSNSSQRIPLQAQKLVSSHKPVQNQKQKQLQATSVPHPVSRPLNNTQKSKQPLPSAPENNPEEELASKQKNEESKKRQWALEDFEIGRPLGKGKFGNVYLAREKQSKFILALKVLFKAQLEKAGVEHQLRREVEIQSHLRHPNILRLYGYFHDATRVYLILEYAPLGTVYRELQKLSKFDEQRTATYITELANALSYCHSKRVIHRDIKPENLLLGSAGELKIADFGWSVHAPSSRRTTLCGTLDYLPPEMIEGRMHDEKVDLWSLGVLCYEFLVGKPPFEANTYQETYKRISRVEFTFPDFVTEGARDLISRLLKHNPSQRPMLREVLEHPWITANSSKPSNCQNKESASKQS
protocol-details: radiometric filter-binding kinase assay
condition-summary: compound 0.01 µM
observation-type: residual activity (%)

Answered examples (3):
# molecule, residual activity, %
measured = [
    ("O=C(Nc1nc2cc(C(F)(F)F)cc(NC3CC3)n2n1)c1cccnc1", 108),
    ("CNc1nc(-c2ccc3c(N)n[nH]c3c2)cc(N2C[C@@H](C(=O)NC3CCCCC3)CC[C@H]2C)n1", 112),
    ("COc1ccc(N(C(=O)Nc2c(C)cccc2C)c2cc(Nc3ccc(N4CCN(C)CC4)cc3)ncn2)c(OC)c1", 98),
]

1: COc1cc(O)c2c(c1)[C@H]1OC1C[C@H](O)[C@H](O)C(=O)/C=C\C[C@H](C)OC2=O (stereo not given in full)
2: CNC(=O)C1[C@H]2O[C@@](C)([C@@H]1N)n1c3ccccc3c3c4c(c5c6ccccc6n2c5c31)C(=O)NC4 (stereo not given in full)
For the two items 1 and 2 , which reports the higher residual activity value? # reply format: chosen label
1
